All values here come from patent US6716809B1.

Tested on: CD4+ clone 436/B6.37 (B6/37)
Assay: IFN-γ/TNF production by CD4+ clone B6/37 (clone 37) stimulated with peptide- or protein-pulsed EBV-B cells
Format: cell-based, human
Conditions: peptide concentration 3 ng/ml; autologous LB 1555 EBV-B cells
Method: The microcultures that contained proliferating CD4^+ T cells were assessed around 35 days after the start of the culture for their capacity to produce TNF and/or IFN-γ when stimulated with autologous EBV-B cells pulsed with the His-MAGE-A3 protein. […] IFN-γ production was measured using an ELISA assay developed in our laboratory (see below) with reagents from Medgenix Diagnostics-Biosource (Fleurus, Belgium). […]
Property Name: IFN-γ production by clone 37 (pg/mL)
All answers are understood in pg/mL, so give the number only.

AELVHFLLLKYRAR (listed as Homo sapiens)    272
AELVHFLLLKYRARE (listed as Homo sapiens)    230
AELVHFLLLKYRA (listed as Homo sapiens)    139
VAELVHFLLLKYRA (listed as Homo sapiens)    179
ELVHFLLLKYRAR (listed as Homo sapiens)    192
VAELVHFLLLKYRARE (listed as Homo sapiens)    300
VAELVHFLLLKYRAR (listed as Homo sapiens)    262

Inquiry: What measured IFN-γ production by clone 37 goes with ELVHFLLLKYRARE (listed as Homo sapiens) ?
Reply text: 160

---

Test system: LB1158 CD4+ clone 22
Test: IFN-γ production by CD4+ clone 22 stimulated with peptide- or protein-pulsed EBV-B cells
Assay type: cell-based, human
Settings: peptide concentration 100 ng/ml; HLA-DR13 EBV-B cells
Property Name: IFN-γ production by clone 22 (pg/mL)
All answers are understood in pg/mL, so give the number only.

The examples below pair each entry with its known result.
KYRAREPVTKAE (listed as Homo sapiens)    16
LLKYRAREPVTKAE (listed as Homo sapiens)    1736
FLLLKYRAREPV (listed as Homo sapiens)    383
LKYRAREPVTKAE (listed as Homo sapiens)    1029
FLLLKYRAREPVTK (listed as Homo sapiens)    28
FLLLKYRAREPVTKA (listed as Homo sapiens)    1854
LLLKYRAREPVTKAE (listed as Homo sapiens)    1679
FLLLKYRAREPVT (listed as Homo sapiens)    1510

Inquiry: What measured IFN-γ production by clone 22 goes with FLLLKYRAREP (listed as Homo sapiens) ?
Reply text: 6

---

Test system: LB1158 CD4+ clone 22
Assay: IFN-γ production by CD4+ clone 22 stimulated with peptide- or protein-pulsed EBV-B cells
Format: cell-based, human
Settings: peptide concentration 1 ng/ml; HLA-DR13 EBV-B cells
Measured IFN-γ production by clone 22 values are reported for all entries that follow.
All answers are understood in pg/mL, so give the number only.

KYRAREPVTKAE (listed as Homo sapiens)    0
LKYRAREPVTKAE (listed as Homo sapiens)    0
FLLLKYRAREPVTKA (listed as Homo sapiens)    283

Inquiry: Can you look up IFN-γ production by clone 22 on LB1158 CD4+ clone 22 for FLLLKYRAREPV (listed as Homo sapiens) ?
Reply text: 0

Inquiry: Repeat for the following sequence: LLLKYRAREPVTKAE (listed as Homo sapiens)
Reply text: 718

Inquiry: Repeat for the following sequence: FLLLKYRAREPVT (listed as Homo sapiens)
Reply text: 291

Inquiry: Repeat for the following sequence: FLLLKYRAREP (listed as Homo sapiens)
Reply text: 0

Inquiry: Repeat for the following sequence: FLLLKYRAREPVTK (listed as Homo sapiens)
Reply text: 0

Inquiry: Repeat for the following sequence: LLKYRAREPVTKAE (listed as Homo sapiens)
Reply text: 262

---

Tested on: 7002 CD4+ clone 2
Assay: IFN-γ production by CD4+ clone 2 stimulated with peptide- or protein-pulsed EBV-B cells
Type: cell-based, human
Conditions: peptide concentration 1 ng/ml; HLA-DR13 EBV-B cells
Criterion: IFN-γ production by clone 2 meeting or surpassing 100 pg/mL. Met: t. Not met: f.

LKYRAREPVTKAE (listed as Homo sapiens)    f
FLLLKYRAREP (listed as Homo sapiens)    f
LLLKYRAREPVTKAE (listed as Homo sapiens)    t
KYRAREPVTKAE (listed as Homo sapiens)    f
FLLLKYRAREPV (listed as Homo sapiens)    f
FLLLKYRAREPVT (listed as Homo sapiens)    t
LLKYRAREPVTKAE (listed as Homo sapiens)    f
FLLLKYRAREPVTK (listed as Homo sapiens)    f

Inquiry: Determine whether measured IFN-γ production by clone 2 meets or exceeds 100 pg/mL for FLLLKYRAREPVTKA (listed as Homo sapiens)
Reply text: t

---

Tested on: CD4+ clone 436/B6.34 (B6/34)
Assay: TNF/IFN-γ production by CD4+ clone B6/34 stimulated with peptide-pulsed EBV-B cells
Assay type: cell-based, human
Property Name: activation of clone B6/34 by 16 amino acid peptides

FLLLKYRAREPVTKAE (listed as Homo sapiens) [MAGE-A3119-134]    unable to activate
MAGE-A3107-122: 16 amino acid synthetic peptide corresponding to residues 107-122 of the MAGE-A3 protein (AALSRKVAELVHFLLL; UniProt P43357 107-122, looked up, fragment)    unable to activate
ELVHFLLLKYRAREPV (listed as Homo sapiens) [MAGE-A3115-130]    stimulated specifically
RKVAELVHFLLLKYRA (listed as Homo sapiens) [MAGE-A3111-126]    stimulated specifically
